Source of measurements: patent US6121241A

Biological target: tissue plasminogen activator (tPA) (Homo sapiens, UniProt P00750)
Sequence (P00750 36-562, species assumed): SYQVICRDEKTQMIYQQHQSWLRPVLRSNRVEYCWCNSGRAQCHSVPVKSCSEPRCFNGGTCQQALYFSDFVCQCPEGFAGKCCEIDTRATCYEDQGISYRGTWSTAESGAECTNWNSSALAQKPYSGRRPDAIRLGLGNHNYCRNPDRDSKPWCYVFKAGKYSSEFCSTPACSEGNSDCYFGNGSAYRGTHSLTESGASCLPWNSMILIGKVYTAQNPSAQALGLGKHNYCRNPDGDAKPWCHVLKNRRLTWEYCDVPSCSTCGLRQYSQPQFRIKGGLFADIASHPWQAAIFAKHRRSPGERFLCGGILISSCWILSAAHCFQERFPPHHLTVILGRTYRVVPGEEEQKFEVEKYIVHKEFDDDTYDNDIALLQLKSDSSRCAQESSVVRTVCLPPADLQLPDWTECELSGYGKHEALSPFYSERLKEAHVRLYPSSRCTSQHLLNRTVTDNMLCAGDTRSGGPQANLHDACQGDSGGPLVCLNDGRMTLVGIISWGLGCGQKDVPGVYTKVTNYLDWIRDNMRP
Assay: Fibrin-plate method, plasmin formation induced by tPA
Details: fibrin-plate method; hydrolyzed area reduced by 50%
# key: entry, value: pIC50
Conceptually, pIC50 converts a concentration in mol/L into minus its log10.

Below, each entry is followed by its recorded pIC50 result.
>  <molecule>
N=C(N)NCCC[C@@H](C=O)NC(=O)[C@H]1CCCN1C(=O)C(O)C1CCCCCC1.N=C(N)NCCC[C@@H](C=O)NC(=O)[C@H]1CCCN1C(=O)C(O)C1CCCCCC1.O=S(=O)(O)O (stereo partly shown)

>  <assayed-target>
tissue plasminogen activator (tPA) (Homo sapiens, UniProt P00750)

>  <number>
4.13

$$$$
>  <molecule>
N=C(N)NCCC[C@@H](C=O)NC(=O)[C@H]1CCCN1C(=O)C(O)C1CCCC1.N=C(N)NCCC[C@@H](C=O)NC(=O)[C@H]1CCCN1C(=O)C(O)C1CCCC1.O=S(=O)(O)O (stereo partly shown)

>  <assayed-target>
tissue plasminogen activator (tPA) (Homo sapiens, UniProt P00750)

>  <number>
3.95

$$$$
>  <molecule>
CC(C)(C)OC(=O)N[C@H](Cc1ccccc1)C(=O)N1CCC[C@H]1C(=O)N[C@H](C=O)CCCNC(=N)N

>  <assayed-target>
tissue plasminogen activator (tPA) (Homo sapiens, UniProt P00750)

>  <number>
5.22

$$$$

Turning to the following molecule.
Notebook: CN[C@H](Cc1ccccc1)C(=O)N1CCC[C@H]1C(=O)N[C@H](C=O)CCCNC(=N)N , pIC50 read as 3.88

###

# key: entry, value: IC50
Target: thrombin (Homo sapiens)
Construct: The isolated active factor (e.g. thrombin, fXa) and its chromogen or fluorogen peptide-amide substrate are reacted
Assay: Thrombin time (TT) plasma clotting test
Assay type: biochemical
Settings: Table 1; concentration doubling clotting time; read-out: B: IC50, TT
Square brackets hold non-standard residues; d marks the D form. Peptide text beside a SMILES is read from it. * marks the point of attachment. 1Nal = N[C@@H](Cc1cccc2ccccc12)C(=O)O; Boc = CC(C)(C)OC(=O)*
Please respond with the number in µM and leave the unit unwritten.

>  <molecule>
CC(C)(C)OC(=O)N[C@H](Cc1ccccc1)C(=O)N[C@@H](Cc1cccc2ccccc12)C(=O)N[C@H](C=O)CCCN=C(N)N [Compound C4, Boc-D-Phe-Nal(1)-Arg-H] (Boc-[dF]-[1Nal]-Arg-aldehyde)

>  <assayed-target>
thrombin (Homo sapiens)

>  <number>
17.2

$$$$

Turning to the following molecule.
Notebook: CN[C@H](Cc1ccccc1)C(=O)N1CCC[C@H]1C(=O)N[C@H](C=O)CCCNC(=N)N , IC50 read as 0.09

###

Biological target: plasmin (PL) (Homo sapiens, UniProt P00747)
Sequence (P00747 581-810 limits assumed, species assumed): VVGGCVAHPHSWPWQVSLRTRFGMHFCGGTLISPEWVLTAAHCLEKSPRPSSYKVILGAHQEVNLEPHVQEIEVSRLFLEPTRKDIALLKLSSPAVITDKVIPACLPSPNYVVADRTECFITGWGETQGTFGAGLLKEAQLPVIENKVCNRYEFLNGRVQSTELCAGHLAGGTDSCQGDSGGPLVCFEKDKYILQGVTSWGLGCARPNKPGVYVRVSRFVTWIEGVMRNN
Sequence (P00747 97-580 partner limits assumed, species assumed): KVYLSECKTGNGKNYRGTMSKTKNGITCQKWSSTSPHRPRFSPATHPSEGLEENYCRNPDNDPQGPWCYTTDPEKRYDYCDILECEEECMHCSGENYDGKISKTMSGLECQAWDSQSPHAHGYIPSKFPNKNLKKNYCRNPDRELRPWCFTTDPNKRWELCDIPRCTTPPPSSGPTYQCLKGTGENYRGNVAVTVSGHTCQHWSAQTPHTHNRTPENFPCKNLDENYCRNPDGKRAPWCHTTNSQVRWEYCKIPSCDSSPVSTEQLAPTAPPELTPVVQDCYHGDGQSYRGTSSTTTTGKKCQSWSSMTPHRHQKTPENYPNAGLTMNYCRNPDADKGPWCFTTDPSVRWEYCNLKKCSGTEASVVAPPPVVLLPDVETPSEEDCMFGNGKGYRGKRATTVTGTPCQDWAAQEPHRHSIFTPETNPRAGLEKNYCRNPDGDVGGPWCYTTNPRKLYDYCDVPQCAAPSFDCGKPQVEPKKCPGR
Experiment: Fibrin-plate method, plasmin
Type: biochemical
Details: fibrin-plate method; hydrolyzed area reduced by 50%
# key: entry, value: IC50
Please respond with the number in µM and leave the unit unwritten.

>  <compound>
N=C(N)NCCC[C@@H](C=O)NC(=O)[C@H]1CCCN1C(=O)C(O)C1CCCC1.N=C(N)NCCC[C@@H](C=O)NC(=O)[C@H]1CCCN1C(=O)C(O)C1CCCC1.O=S(=O)(O)O (stereo partly shown)

>  <IC50 (µM)>
390

$$$$
>  <compound>
CC(C)(C)OC(=O)N[C@H](Cc1ccccc1)C(=O)N1CCC[C@H]1C(=O)N[C@H](C=O)CCCNC(=N)N

>  <IC50 (µM)>
12

$$$$
>  <compound>
N=C(N)NCCC[C@@H](C=O)NC(=O)[C@H]1CCCN1C(=O)C(O)C1CCCCCC1.N=C(N)NCCC[C@@H](C=O)NC(=O)[C@H]1CCCN1C(=O)C(O)C1CCCCCC1.O=S(=O)(O)O (stereo partly shown)

>  <IC50 (µM)>
83

$$$$

Notebook: CN[C@H](Cc1ccccc1)C(=O)N1CCC[C@H]1C(=O)N[C@H](C=O)CCCNC(=N)N , IC50 read as 54

###

Target: thrombin (Homo sapiens, UniProt P00734)
Construct: The isolated active factor (e.g. thrombin, fXa) and its chromogen or fluorogen peptide-amide substrate are reacted
Assay: Thrombin time (TT) plasma clotting test
Format: biochemical
Conditions: read-out: concentration doubling the clotting time in the TT test
assay-metric: pIC50
Conceptually, pIC50 converts a concentration in mol/L into minus its log10.

Considering CN[C@H](Cc1ccccc1)C(=O)N1CCC[C@H]1C(=O)N[C@H](C=O)CCCNC(=N)N [Compound C1, D-MePhe-Pro-Arg-H] , its pIC50 with thrombin (Homo sapiens, UniProt P00734) was recorded as 7.06

###

Target: thrombin (Homo sapiens)
Construct: The isolated active factor (e.g. thrombin, fXa) and its chromogen or fluorogen peptide-amide substrate are reacted
Experiment: Thrombin time (TT) plasma clotting test
Format: biochemical
Conditions: Table 2; concentration doubling clotting time; read-out: A: IC50, TT
assay-metric: IC50 (nM)
Please respond with the number in nM and leave the unit unwritten.

>  <compound>
CN[C@H](Cc1ccccc1)C(=O)N1CCC[C@H]1C(=O)N[C@H](C=O)CCCNC(=N)N

>  <assayed-target>
thrombin (Homo sapiens)

>  <unit-annotation>
nM

>  <IC50>
90

$$$$

Notebook: N=C(N)NCCC[C@@H](C=O)NC(=O)[C@H]1CCCN1C(=O)C(O)C1CCCC1.N=C(N)NCCC[C@@H](C=O)NC(=O)[C@H]1CCCN1C(=O)C(O)C1CCCC1.O=S(=O)(O)O (stereo partly shown) , IC50 read as 100

Notebook: NC(N)=NCCC[C@@H](C=O)NC(=O)[C@@H]1CCCN1C(=O)[C@H](O)C1CCCCC1 , IC50 read as 220

Notebook: N=C(N)NCCC[C@@H](C=O)NC(=O)[C@H]1CCCN1C(=O)C(O)C1CCCCCC1.N=C(N)NCCC[C@@H](C=O)NC(=O)[C@H]1CCCN1C(=O)C(O)C1CCCCCC1.O=S(=O)(O)O (stereo partly shown) , IC50 read as 110

###

// each record: one item and its IC50 for fibrin-gel bound thrombin (Homo sapiens, UniProt P00734)
Respond with a number, then the unit of measure.

>  <compound>
CN[C@H](Cc1ccccc1)C(=O)N1CCC[C@H]1C(=O)N[C@H](C=O)CCCNC(=N)N

>  <IC50>
300 nM

$$$$
>  <compound>
N=C(N)NCCC[C@@H](C=O)NC(=O)[C@H]1CCCN1C(=O)C(O)C1CCCCCC1.N=C(N)NCCC[C@@H](C=O)NC(=O)[C@H]1CCCN1C(=O)C(O)C1CCCCCC1.O=S(=O)(O)O (stereo partly drawn)

>  <IC50>
210 nM

$$$$

Turning to the following compound.
Considering NC(N)=NCCC[C@@H](C=O)NC(=O)[C@@H]1CCCN1C(=O)[C@H](O)C1CCCCC1 , its IC50 with fibrin-gel bound thrombin (Homo sapiens, UniProt P00734) was recorded as 220 nM

###

Molecular target: thrombin (Homo sapiens, UniProt P00734)
Construct: The isolated active factor (e.g. thrombin, fXa) and its chromogen or fluorogen peptide-amide substrate are reacted
Assay: Inhibition of the amidolytic effect of thrombin on Tos-Gly-Pro-Arg-pNA
Assay type: biochemical
Details: Tos-Gly-Pro-Arg-pNA substrate
assay-metric: IC50 (nM)
Please respond with the number in nM and leave the unit unwritten.

Notebook: CN[C@H](Cc1ccccc1)C(=O)N1CCC[C@H]1C(=O)N[C@H](C=O)CCCNC(=N)N , IC50 read as 2

###

Tested on: citrate plasma coagulation (PT)
Test: Prothrombin time (PT) plasma clotting test
Assay type: biochemical
Settings: read-out: concentration doubling the clotting time in the PT test
assay-metric: pIC50
Conceptually, pIC50 converts a concentration in mol/L into minus its log10.

Considering CN[C@H](Cc1ccccc1)C(=O)N1CCC[C@H]1C(=O)N[C@H](C=O)CCCNC(=N)N [Compound C1, D-MePhe-Pro-Arg-H] , its pIC50 with citrate plasma coagulation (PT) was recorded as 5.54

###

Target: human factor Xa (Homo sapiens, UniProt P00742)
Construct: purchased SIGMA
Sequence (P00742 235-488 limits assumed): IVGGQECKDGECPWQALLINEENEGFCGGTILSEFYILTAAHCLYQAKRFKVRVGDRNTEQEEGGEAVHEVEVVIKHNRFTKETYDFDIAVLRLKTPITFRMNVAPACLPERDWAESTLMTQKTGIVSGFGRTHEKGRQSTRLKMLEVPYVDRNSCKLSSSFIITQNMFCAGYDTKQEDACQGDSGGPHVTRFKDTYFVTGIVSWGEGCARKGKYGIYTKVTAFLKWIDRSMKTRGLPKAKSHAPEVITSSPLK
Sequence (P00742 41-179 partner limits assumed): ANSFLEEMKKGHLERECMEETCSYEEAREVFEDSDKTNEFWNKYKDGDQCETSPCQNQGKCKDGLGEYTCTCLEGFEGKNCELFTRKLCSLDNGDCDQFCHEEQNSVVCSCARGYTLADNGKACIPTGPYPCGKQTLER
Assay: Inhibition of the amidolytic effect of factor Xa in solution on Bz-Ile-Glu-Gly-Arg-pNA (method M6)
Type: biochemical
Conditions: Table 2; Bz-Ile-Glu-Gly-Arg-pNA, isolated human factor Xa; read-out: B: IC50 (factor Xa inhibiting effect)
assay-metric: pIC50
Conceptually, pIC50 converts a concentration in mol/L into minus its log10.

>  <compound>
N=C(N)NCCC[C@@H](C=O)NC(=O)[C@H]1CCCN1C(=O)C(O)C1CCCCCC1.N=C(N)NCCC[C@@H](C=O)NC(=O)[C@H]1CCCN1C(=O)C(O)C1CCCCCC1.O=S(=O)(O)O (stereo partly shown)

>  <pIC50>
7.20

$$$$
>  <compound>
NC(N)=NCCC[C@@H](C=O)NC(=O)[C@@H]1CCCN1C(=O)[C@H](O)C1CCCCC1

>  <pIC50>
6.61

$$$$
>  <compound>
N=C(N)NCCC[C@@H](C=O)NC(=O)[C@H]1CCCN1C(=O)C(O)C1CCCC1.N=C(N)NCCC[C@@H](C=O)NC(=O)[C@H]1CCCN1C(=O)C(O)C1CCCC1.O=S(=O)(O)O (stereo partly shown)

>  <pIC50>
6.97

$$$$

Considering CN[C@H](Cc1ccccc1)C(=O)N1CCC[C@H]1C(=O)N[C@H](C=O)CCCNC(=N)N , its pIC50 with human factor Xa (Homo sapiens, UniProt P00742) was recorded as 5.04
